biological target: E3 ubiquitin-protein ligase Mdm2 (Homo sapiens); test: Inhibition of MDM2 (unknown origin) preincubated for 30 mins by fluorescence polarization assay
Sequence (Q00987 whole entry): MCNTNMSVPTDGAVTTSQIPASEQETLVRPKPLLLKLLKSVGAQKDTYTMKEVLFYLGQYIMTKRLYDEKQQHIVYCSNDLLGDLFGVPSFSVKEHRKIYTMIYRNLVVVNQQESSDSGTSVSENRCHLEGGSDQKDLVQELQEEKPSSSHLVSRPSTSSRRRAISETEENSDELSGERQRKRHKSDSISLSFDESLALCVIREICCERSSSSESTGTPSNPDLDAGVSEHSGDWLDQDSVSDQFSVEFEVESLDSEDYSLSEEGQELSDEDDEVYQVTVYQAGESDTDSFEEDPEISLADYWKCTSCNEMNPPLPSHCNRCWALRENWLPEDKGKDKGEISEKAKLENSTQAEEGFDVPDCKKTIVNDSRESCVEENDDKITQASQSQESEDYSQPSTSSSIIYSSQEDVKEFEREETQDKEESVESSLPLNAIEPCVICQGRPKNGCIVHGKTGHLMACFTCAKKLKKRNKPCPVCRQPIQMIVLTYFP
Ki for assorted compounds
Response body: numeric value in nM, unit text excluded.

# count of solved cases: 4
compound | reportedMeasurement
CCOc1cc(C(C)(C)C)ccc1C1=NC(c2ccc(Cl)cc2)C(c2ccc(Cl)cc2)N1C(=O)NCCCCCCC(=O)NO (stereo unspecified) | 320
CCOc1cc(C(C)(C)C)ccc1C1=NC(c2ccc(Cl)cc2)C(c2ccc(Cl)cc2)N1C(=O)NCCCCCCCC(=O)Nc1ccccc1N (stereo unspecified) | 1020
CCOc1cc(C(C)(C)C)ccc1C1=NC(c2ccc(Cl)cc2)C(c2ccc(Cl)cc2)N1C(=O)NCCCCCCCC(=O)NO (stereo unspecified) | 340
CCOc1cc(C(C)(C)C)ccc1C1=NC(c2ccc(Cl)cc2)C(c2ccc(Cl)cc2)N1C(=O)NCc1ccc(C(=O)NO)cc1 (stereo unspecified) | 580

Exercise: Hello, I am looking for reported Ki with E3 ubiquitin-protein ligase Mdm2 (Homo sapiens) for CCOc1cc(C(C)(C)C)ccc1C1=N[C@H](c2ccc(Cl)cc2)[C@H](c2ccc(Cl)cc2)N1C(=O)N1CCN(CCCCCCC(=O)NO)CC1 . Could you help?
Solution: 10900

Exercise: Record CCOc1cc(C(C)(C)C)ccc1C1=NC(c2ccc(Cl)cc2)C(c2ccc(Cl)cc2)N1C(=O)N1CCN(CC(=O)NO)CC1 (stereo unspecified) : what is its Ki with E3 ubiquitin-protein ligase Mdm2 (Homo sapiens)?
Solution: 70

Exercise: Could you share what Ki was measured for CCOc1cc(C(C)(C)C)ccc1C1=NC(c2ccc(Cl)cc2)C(c2ccc(Cl)cc2)N1C(=O)N1CCN(c2ncc(C(=O)NO)cn2)CC1 (stereo unspecified) , tested on E3 ubiquitin-protein ligase Mdm2 (Homo sapiens)?
Solution: 1050

Exercise: GET /values?readout=Ki&system=E3 ubiquitin-protein ligase Mdm2 (Homo sapiens)&item= CCOc1cc(C(C)(C)C)ccc1C1=NC(c2ccc(Cl)cc2)C(c2ccc(Cl)cc2)N1C(=O)NCCCCCCC(=O)Nc1ccccc1N (stereo unspecified)
Solution: 620

Exercise: Which Ki is reported with E3 ubiquitin-protein ligase Mdm2 (Homo sapiens) for this entry: CCOc1cc(C(C)(C)C)ccc1C1=NC(c2ccc(Cl)cc2)C(c2ccc(Cl)cc2)N1C(=O)N1CCC(Nc2ncc(C(=O)NO)cn2)CC1 (stereo unspecified) ?
Solution: 460

Exercise: So what Ki did CCOc1cc(C(C)(C)C)ccc1C1=NC(c2ccc(Cl)cc2)C(c2ccc(Cl)cc2)N1C(=O)N1CCN(CCCCCCC(=O)NO)CC1 (stereo unspecified) get with E3 ubiquitin-protein ligase Mdm2 (Homo sapiens)?
Solution: 110

Exercise: # query: Ki | item CCOc1cc(C(C)(C)C)ccc1C1=NC(c2ccc(Cl)cc2)C(c2ccc(Cl)cc2)N1C(=O)N1CCN(CCCCC(=O)NO)CC1 (stereo unspecified) | system: E3 ubiquitin-protein ligase Mdm2 (Homo sapiens)
Solution: 170
